- MEASUREMENT TARGET: TAF3 PHD domain M900Q/M907Q (the paper's wild-type construct) (UniProt Q5VWG9)
- ASSAY: ITC
Non-standard residues stand in square brackets, D forms with d. No end group written: not given here. Lys(Me3) = C[N+](C)(C)CCCC[C@H](N)C(=O)O
QUANTITY KIND: Kd (nM)
Give bare numbers, in nM.

Problem: # return recorded Kd for entry ART[Lys(Me3)]QTARKSTGGY [histone H3 tail peptide trimethylated at K4 (H3K4me3), ARTX… with X = Kme3]
Result: 1050
